Provenance of the data: patent US20260285853A1

test system: HTT mRNA; experiment: Gene panel canonical junction qPCR assay, decrease in CJ mRNA, Table 3; type: cell-based; conditions: decrease in CJ mRNA levels, canonical junction qPCR, gene panel
Each entry below carries its reported IC50.
readout_kind: IC50

1) COc1nc2c(C(=O)Nc3cc(CNS(C)(=O)=O)c4nn(C)cc4c3)ccc(N3C[C@H](C)N[C@@H](C)C3)c2s1 [Compound 731, 2,2,2-trifluoroacetate] : > 10 µM
2) Cc1cn2cc(NC(=O)c3ccc(N4CCC(NC5CC5)CC4)c4cc(CF)nn34)nc2c(C)n1 [Compound 617] : > 10 µM
3) CCNC1CCN(c2ccc(C(=O)Nc3cc(CCC(N)=O)c4nn(C)cc4c3)c3nn(C)cc23)CC1 [Compound 875] : > 10 µM
4) Cc1cn2cc(NC(=O)c3ccc(N4CCC(NC5CC5)CC4)c4cc(CO)nn34)cc(F)c2n1 [Compound 622] : 0.1 to 1 µM
5) Cc1cn2cc(NC(=O)c3ccc(N4CCC(NC5CC5)CC4)c4cn(C)nc34)nc2c(CO)n1 [Compound 846] : 0.1 to 1 µM
6) COc1nc2c(C(=O)Nc3cn4cc(C)nc4c(F)c3OC)ccc(N3C[C@H](C)N[C@@H](C)C3)c2s1 [Compound 764, 2,2,2-trifluoroacetate] : 1 to 10 µM
7) Cn1cc2cc(NC(=O)c3ccc(N4CCC(NC5CC5)CC4)c4cn(C)nc34)cc(Cn3ccnn3)c2n1 [Compound 823] : > 10 µM

----------
Tested on: MYB mRNA
Test: Gene panel canonical junction qPCR assay, decrease in CJ mRNA, Table 3
Type: cell-based
Settings: decrease in CJ mRNA levels, canonical junction qPCR, gene panel
Procedure: Compounds described herein were used to modulate RNA transcript abundance in cells. The expression of a target mRNA was measured by detecting the formation of an exon-exon junction in the canonical transcript (CJ). A compound mediated exon-inclusion event was detected by observing an increase in formation of a new junction with an alternative exon (AJ). Real-time qPCR assays were used to detect these splicing switches and interrogate the potency of various compounds towards different target genes. […]
pIC50: −log10 of the molar value.
readout_kind: pIC50

1) Cc1cn2cc(NC(=O)c3ccc(N4CCC(NC5CC5)CC4)c4cn(C)nc34)nc2c(Cn2cccn2)n1 [Compound 773] : 5.00 to 6.00
2) Cc1cn2cc(NC(=O)c3ccc(N4CCC(NC5CC5)CC4)c4cn(C)nc34)nc2c(CN)n1 [Compound 734, bis(2,2,2-trifluoroacetate)] : < 5.00
3) Cc1cn2cc(NC(=O)c3ccc(N4CCC(NC5CC5)CC4)c4cn(C)nc34)nc2c(Cc2cnc(Cl)s2)n1 [Compound 781] : < 5.00
4) CCNC1CCN(c2ccc(C(=O)Nc3cc4cn(C)nc4cc3OC)c3nn(C)cc23)C(C)C1 (stereo not drawn) [Compound 736, 2,2,2-trifluoroacetate] : < 5.00
5) Cc1cn2cc(NC(=O)c3ccc(NC(=O)c4ncc[nH]4)c4[nH]cnc34)cc(F)c2n1 [Compound 610, 2,2,2-trifluoroacetate] : < 5.00
6) COc1nc2c(C(=O)Nc3cc4cc(C)nn4cc3OC)ccc(N3C[C@H](C)N[C@@H](C)C3)c2s1 [Compound 787, 2,2,2-trifluoroacetate] : 5.00 to 6.00

----------
tested on: MYB mRNA; assay: Gene panel canonical junction qPCR assay, decrease in CJ mRNA, Table 3; assay type: cell-based; details: decrease in canonical junction (CJ) mRNA, gene panel qPCR, Table 3
pIC50: −log10 of the molar value. Where a name gives a salt, the structure may show the parent alone.
readout_kind: pIC50

1) CCNC1CCN(c2ccc(C(=O)Nc3cc(F)c4nc(C(C)C)cn4c3)c3nn(C)cc23)CC1 [Compound 177] : < 5.00
2) CCNC1CCN(c2ccc(C(=O)Nc3cc(F)c4nc(C)cn4c3)c3nn(C)nc23)CC1 [Compound 196] : 6.00 to 7.00
3) COc1cc2nn(C)cc2cc1NC(=O)c1ccc(N2CCC3NCC3C2)c2cn(C)nc12 (stereo not drawn) [Compound 542] : 5.00 to 6.00
4) Cc1cc2cc(NC(=O)c3ccc(N4CCC(NC5CC5)CC4)c4cn(C)nc34)n(C)c2c(C)n1 [Compound 469] : 5.00 to 6.00
5) CC(=O)NCc1cn2cc(NC(=O)c3c(F)cc(N4CCC(NC5CC5)CC4)c4cn(C)nc34)nc2c(C)n1 [Compound 424] : < 5.00
6) Cc1cn2cc(NC(=O)c3ccc(N4C[C@@H](C)N[C@@H](C)C4)c4[nH]nnc34)cc(F)c2n1 [Compound 243, hydrochloride] : < 5.00
7) CN[C@H]1C[C@@H](C)N(c2ccc(C(=O)Nc3cc(F)c4nc(C)cn4c3)c3nn(C)cc23)C1 (single isomer, unassigned) [Compound 128] : 6.00 to 7.00
8) Cc1cn2cc(NC(=O)c3ccc(N4C[C@@H](C)N[C@@H](C)C4)c4[nH]cnc34)cc(F)c2n1 [Compound 220] : 6.00 to 7.00
9) Cc1cn2cc(NC(=O)c3ccc(N4CCC(NC5CC5)CC4)c4cn(C)nc34)nc2c(-c2ccn[nH]2)n1 [Compound 487, trifluoroacetate] : < 5.00
10) COc1cc2nn(C)cc2cc1NC(=O)c1c(Cl)cc(N2CCC(NC3CC3)CC2)c2cn(C)nc12 [Compound 436] : 6.00 to 7.00
11) Cc1cn2cc(NC(=O)c3ccc(N4CC(C5CCNCC5)C4)c4cn(C)nc34)nc2c(C)n1 [Compound 499] : 5.00 to 6.00
12) C#CCN[C@@H]1CCN(c2ccc(C(=O)Nc3cc(F)c4nc(C)cn4c3)c3nn(C)cc23)C1 [Compound 122] : 6.00 to 7.00
13) Cn1cc2c(N3CCC(NC4CC4)CC3)cc(F)c(C(=O)Nc3cccnc3O)c2n1 [Compound 411] : < 5.00
14) Cc1cn2cc(NC(=O)c3ccc(N4C[C@H](C)N[C@@H](C)C4)c4cn(C)nc34)nc2c(C)n1 [Compound 549] : 5.00 to 6.00
15) COc1c(NC(=O)c2ccc(N3CCNCC3)c3cc[nH]c23)cn2cc(C)nc2c1F [Compound 212] : 5.00 to 6.00

----------
test system: MYB mRNA; experiment: Gene panel canonical junction qPCR assay, decrease in CJ mRNA, Table 3; assay type: cell-based; conditions: decrease in CJ mRNA levels, canonical junction qPCR, gene panel
Each entry below carries its reported IC50.
readout_kind: IC50

1. Cc1cn2cc(NC(=O)c3ccc(N4CCC(NC5CC5)CC4)c4cn(C)nc34)nc2c(Cn2cnc3c(N)ncnc32)n1 : > 10000 nM
2. Cn1cc2cc(NC(=O)c3ccc(N4CCC(NC5CC5)CC4)c4cn(C)nc34)cc(CCNS(C)(=O)=O)c2n1 : 1000 to 10000 nM
3. CCNC1CCN(c2ccc(C(=O)Nc3cc(CCC(=O)NC)c4nn(C)cc4c3)c3nn(C)cc23)CC1 : 1000 to 10000 nM
4. CNC1CCN(c2ccc(C(=O)Nc3cn4cc(C)nc(CNS(C)(=O)=O)c4n3)c3nn(C)cc23)C1 (centres unmarked) : 100 to 1000 nM
5. CC(=O)NCc1cc(NC(=O)c2ccc(N3CCC(NC4CC4)CC3)c3cn(C)nc23)cc2cn(C)nc12 : 100 to 1000 nM
6. COCc1cc2c(N3CCC(NC4CC4)CC3)ccc(C(=O)Nc3cc(F)c4nc(C)cn4c3)n2n1 : < 100 nM
7. Cc1cn2cc(NC(=O)c3ccc(N4CCC(N(C)C5CC5)CC4)c4cn(C)nc34)nc2c(CNS(C)(=O)=O)n1 : 1000 to 10000 nM
8. COc1nc2c(C(=O)Nc3cc4cn(C)nc4cc3O)ccc(N3C[C@H](C)N[C@@H](C)C3)c2s1 : 100 to 1000 nM
9. C=CCNC1CCN(c2ccc(C(=O)Nc3cc(CNC(=O)OC)c4nn(C)cc4c3)c3nn(C)cc23)CC1 : 100 to 1000 nM
10. CNC1CN(c2ccc(C(=O)Nc3cc(F)c4nn(C)cc4c3)c3nc(OC)sc23)C1 : < 100 nM
11. Cn1cc2cc(NC(=O)c3ccc(N4CCC(NC5CC5)CC4)c4cn(C)nc34)cc(CNc3ncccn3)c2n1 : 100 to 1000 nM
12. CCNC1CCN(c2ccc(C(=O)Nc3cc4cn(C)nc4cc3OC)c3nc(OC)sc23)CC1 : 1000 to 10000 nM
13. COc1cc2c(N3CCC(NC4CC4)CC3)ccc(C(=O)Nc3cc(CNS(C)(=O)=O)c4nc(C)cn4c3)n2n1 : 1000 to 10000 nM
14. Cc1cn2cc(NC(=O)c3ccc(N4CCC(N(C)C)CC4)c4cn(C)nc34)nc2c(CNS(C)(=O)=O)n1 : > 10000 nM
15. CCNC1CCN(c2ccc(C(=O)Nc3cc(CN4CCCC4=O)c4nn(C)cc4c3)c3nn(C)cc23)CC1 : 1000 to 10000 nM
16. CCNC1CCN(c2ccc(C(=O)Nc3cn4cc(C)nc(CC(=O)N(C)C)c4n3)c3nn(C)cc23)CC1 : 1000 to 10000 nM
17. COc1nc2c(C(=O)Nc3cc4cn(C)nc4nc3OC)ccc(N3C[C@H](C)N[C@@H](C)C3)c2s1 : 100 to 1000 nM
18. COc1nc2c(C(=O)Nc3cc(F)c4nn(C)cc4c3)ccc(N3CC[C@H](NC(C)(C)C)C3)c2s1 : 100 to 1000 nM
19. CNc1nc2c(C(=O)Nc3cc(F)c4nn(C)cc4c3)ccc(N3C[C@H](C)N[C@@H](C)C3)c2s1 : < 100 nM
20. Cc1cn2cc(NC(=O)c3cc(F)c(N4CCC(NC5CC5)CC4)c4cn(C)nc34)cc(F)c2n1 : 100 to 1000 nM
21. COC(=O)NCc1cc(NC(=O)c2ccc(N3CCC(NC4CC4)CC3)c3cn(C)nc23)cc2cn(C)nc12 : 100 to 1000 nM
22. Cn1cc2cc(NC(=O)c3cc(F)c(N4CCC(NC5CC5)CC4)c4cn(C)nc34)cc(F)c2n1 : > 10000 nM
23. CN[C@@H]1CCN(c2ccc(C(=O)Nc3cc(F)c4nn(C)cc4c3)c3nc(OC)sc23)C1 : < 100 nM
24. Cc1cn2cc(NC(=O)c3ccc(N4CCC(NC5CC5)C4)c4c3OCO4)cc(F)c2n1 (centres unmarked) : 1000 to 10000 nM
25. Cc1cn2cc(NC(=O)c3ccc(N4C[C@@H](C)N[C@@H](C)C4)c4c3nnn4C)cc(F)c2n1 : 100 to 1000 nM
26. COc1nc2c(C(=O)Nc3cc(CNS(C)(=O)=O)c4nc(C)cn4c3)ccc(N3CCC(NC4CC4)CC3)c2s1 : 1000 to 10000 nM
27. Cc1cn2cc(NC(=O)c3ccc(N4CCC(NC5CC5)CC4)c4cc(CO)nn34)cc(F)c2n1 : < 100 nM
28. COc1nc2c(C(=O)Nc3cc(F)c4nn(C)cc4c3)ccc(N3CCN[C@H](C)C3)c2s1 : < 100 nM
29. Cc1cn2nc(NC(=O)c3c(F)cc(N4CCC(NC5CC5)CC4)c4nc(C)sc34)cc(C)c2n1 : 100 to 1000 nM
